Provenance of the data: the supplement of paper PMC10567573

B1: ZNF75A (parent)
chain: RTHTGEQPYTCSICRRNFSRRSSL

# Variants of: B1
# EXPERIMENT_NOTES: protein stability index of a GFP-peptide fusion (GPS, HEK-293T) (PSI 1-6); higher = more stable;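 further: lentivirally expressed fusions sorted by FACS into six bins by GFP to DsRed ratio, PSI derived from sequencing read proportions per bin multiplied by bin number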
# TEST_CONTEXT: c terminus: a fixed tail appended
QUANTITY_NAME: protein stability index
# output: bare number, no unit

[in] Look up and state reported protein stability index for RTHTGEQPYTCSIIRRNFSRRSSL [C14I]
[out] 4.01

[in] Look up and state reported protein stability index for RTHTGEQPYTCSICRRNFSKRSSL [R20K]
[out] 2.12

[in] Look up and state reported protein stability index for RNHTGEQPYTCSICRRNFSRRSSL [T2N]
[out] 2.52

[in] Look up and state reported protein stability index for RTHTGEQPYTCSICRRNFSRESSL [R21E]
[out] 3.51

[in] Look up and state reported protein stability index for RTHTGKQPYTCSICRRNFSRRSSL [E6K]
[out] 2.97

[in] Look up and state reported protein stability index for RTHHGEQPYTCSICRRNFSRRSSL [T4H]
[out] 3.03

[in] Look up and state reported protein stability index for ITHTGEQPYTCSICRRNFSRRSSL [R1I]
[out] 3.06

[in] Look up and state reported protein stability index for RTHSGEQPYTCSICRRNFSRRSSL [T4S]
[out] 3.14

[in] Look up and state reported protein stability index for RTHNGEQPYTCSICRRNFSRRSSL [T4N]
[out] 3.85

[in] Look up and state reported protein stability index for RTHTGEQPFTCSICRRNFSRRSSL [Y9F]
[out] 2.64

[in] Look up and state reported protein stability index for RMHTGEQPYTCSICRRNFSRRSSL [T2M]
[out] 2.68

[in] Look up and state reported protein stability index for RTHTGEQPYTCWICRRNFSRRSSL [S12W]
[out] 2.21

[in] Look up and state reported protein stability index for RTHGGEQPYTCSICRRNFSRRSSL [T4G]
[out] 2.91

[in] Look up and state reported protein stability index for RVHTGEQPYTCSICRRNFSRRSSL [T2V]
[out] 2.88

[in] Look up and state reported protein stability index for RTHTREQPYTCSICRRNFSRRSSL [G5R]
[out] 3.07

[in] Look up and state reported protein stability index for RTHTGEQPYTCGICRRNFSRRSSL [S12G]
[out] 2.38

[in] Look up and state reported protein stability index for RTHTGEQPYTCSICRRNFSRHSSL [R21H]
[out] 2.12

[in] Look up and state reported protein stability index for RTHTGVQPYTCSICRRNFSRRSSL [E6V]
[out] 1.93
